Values were extracted from ChEMBL document CHEMBL1133727.

test: Partition coefficient (logP); type: physicochemical; conditions: octanol/water
parameter: logP

Enquiry: Value lookup for logP; key = C[N+](C)(CCCCCC[N+](C)(C)CCCN1C(=O)c2ccccc2C1O)CCCN1C(=O)c2ccccc2C1O (configuration not stated)
Return: 1.45

Enquiry: Further, for C[N+](C)(CCCCCC[N+](C)(C)CCCN1C(=O)c2ccccc2C1=O)CCCN1C(=O)c2ccccc2C1=O ?
Return: 1.46

Enquiry: Next: C[N+](C)(CCCCCC[N+](C)(C)CCCN1C(=O)c2ccccc2/C1=C\c1ccccc1)CCCN1C(=O)c2ccccc2/C1=C\c1ccccc1
Return: 2.96

Enquiry: C[N+](C)(CCCCCC[N+](C)(C)CCCN1C(=O)c2ccccc2/C1=C/c1ccccc1)CCCN1C(=O)c2ccccc2/C1=C/c1ccccc1 , same question.
Return: 2.96

Enquiry: Try this molecule next: COC1c2ccccc2C(=O)N1CCC[N+](C)(C)CCCCCC[N+](C)(C)CCCN1C(=O)c2ccccc2C1OC (configuration not stated)
Return: 1.72

1. C[N+](C)(CCCCCC[N+](C)(C)CCCN1C(=O)c2ccccc2/C1=C\c1ccccc1)CCCN1C(=O)c2ccccc2/C1=C/c1ccccc1
2. C[N+](C)(CCCCCC[N+](C)(C)CCCN1Cc2ccccc2C1=O)CCCN1Cc2ccccc2C1=O
Enquiry: Quick one: lower logP, 1 or 2 ? Kindly state the label of the option you pick.
Return: 2
(2: 1.55, 1: 2.96)

* * *

experiment: Partition coefficient (logP); type: physicochemical; settings: octanol/water
parameter: logP

Enquiry: Using the record for CC(C)SC1c2ccccc2C(=O)N1CCC[N+](C)(C)CCCCCC[N+](C)(C)CCCN1C(=O)c2ccccc2C1SC(C)C (stereo not given) , report its logP.
Return: 2.92

Enquiry: Lookup C[N+](C)(CCCCCC[N+](C)(C)CCCN1C(=O)c2ccccc2C1c1ccccc1)CCCN1C(=O)c2ccccc2C1c1ccccc1 (stereo not given)
Return: 3.4

Enquiry: Check CCOC1c2ccccc2C(=O)N1CCC[N+](C)(C)CCCCCC[N+](C)(C)CCCN1C(=O)c2ccccc2C1OCC (stereo not given) too.
Return: 2.07

I. C[N+](C)(CCCCCC[N+](C)(C)CCCN1C(=O)c2ccccc2C1Cc1ccccc1)CCCN1C(=O)c2ccccc2C1Cc1ccccc1 (stereo not given)
II. CC(C)OC1c2ccccc2C(=O)N1CCC[N+](C)(C)CCCCCC[N+](C)(C)CCCN1C(=O)c2ccccc2C1OC(C)C (stereo not given)
Enquiry: Lower value of logP belongs to which: I or II ? The response must carry the label of the picked entry.
Return: II
(II: 2.48, I: 3.65)

* * *

target: Muscarinic acetylcholine receptor M2 (Sus scrofa); assay: Inhibition of [3H]- N-methyl-scopolamine ([3H]NMS) dissociation from porcine cardiac M2-receptors; conditions: read-out: Log 1/EC50 (converted)
Sequence (P06199 whole entry): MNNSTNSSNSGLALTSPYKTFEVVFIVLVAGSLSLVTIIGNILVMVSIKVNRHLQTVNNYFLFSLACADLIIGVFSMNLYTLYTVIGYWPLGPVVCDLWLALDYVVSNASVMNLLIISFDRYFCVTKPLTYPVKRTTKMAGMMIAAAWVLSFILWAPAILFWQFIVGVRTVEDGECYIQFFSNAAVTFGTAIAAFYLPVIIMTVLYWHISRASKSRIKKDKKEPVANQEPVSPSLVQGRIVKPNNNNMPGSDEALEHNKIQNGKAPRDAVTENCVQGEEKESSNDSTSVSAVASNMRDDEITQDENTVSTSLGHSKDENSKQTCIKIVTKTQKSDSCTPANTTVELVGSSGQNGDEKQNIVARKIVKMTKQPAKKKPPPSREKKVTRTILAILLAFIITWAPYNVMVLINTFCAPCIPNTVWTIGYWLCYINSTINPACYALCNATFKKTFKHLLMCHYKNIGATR
parameter: EC50 (nM)

Enquiry: GET /values?readout=EC50&item= C[N+](C)(CCCCCC[N+](C)(C)CCCN1Cc2ccccc2C1=O)CCCN1Cc2ccccc2C1=O
Return: 2000

1. CC(C)SC1c2ccccc2C(=O)N1CCC[N+](C)(C)CCCCCC[N+](C)(C)CCCN1C(=O)c2ccccc2C1SC(C)C (configuration not stated)
2. C[N+](C)(CCCCCC[N+](C)(C)CCCN1C(=O)c2ccccc2C1c1ccccc1)CCCN1C(=O)c2ccccc2C1c1ccccc1 (configuration not stated)
Enquiry: Please compare: 1 and 2 . Report which one has the smaller EC50 value. Your answer should be the label attached to the chosen record.
Return: 2
(2: 794 nM, 1: 1260 nM)

A. CCOC1c2ccccc2C(=O)N1CCC[N+](C)(C)CCCCCC[N+](C)(C)CCCN1C(=O)c2ccccc2C1OCC (configuration not stated)
B. COC1c2ccccc2C(=O)N1CCC[N+](C)(C)CCCCCC[N+](C)(C)CCCN1C(=O)c2ccccc2C1OC (configuration not stated)
Enquiry: Pick one: A or B . Which has the bigger EC50 number? Please indicate the selected item by its label.
Return: B
(B: 6760 nM, A: 2290 nM)

A. C[N+](C)(CCCCCC[N+](C)(C)CCCN1C(=O)c2ccccc2C1=O)CCCN1C(=O)c2ccccc2C1=O
B. C[N+](C)(CCCCCC[N+](C)(C)CCCN1C(=O)c2ccccc2/C1=C\c1ccccc1)CCCN1C(=O)c2ccccc2/C1=C\c1ccccc1
C. C[N+](C)(CCCCCC[N+](C)(C)CCCN1C(=O)c2ccccc2C1O)CCCN1C(=O)c2ccccc2C1O (configuration not stated)
Enquiry: List from greatest to least EC50. Write out the labels following the order that was asked for.
Return: C, A, B
(C: 6030 nM, A: 1410 nM, B: 70.8 nM)

A. C[N+](C)(CCCCCC[N+](C)(C)CCCN1C(=O)c2ccccc2/C1=C\c1ccccc1)CCCN1C(=O)c2ccccc2/C1=C/c1ccccc1
B. CC(C)OC1c2ccccc2C(=O)N1CCC[N+](C)(C)CCCCCC[N+](C)(C)CCCN1C(=O)c2ccccc2C1OC(C)C (configuration not stated)
C. C[N+](C)(CCCCCC[N+](C)(C)CCCN1C(=O)c2ccccc2C1Cc1ccccc1)CCCN1C(=O)c2ccccc2C1Cc1ccccc1 (configuration not stated)
Enquiry: Sort (3 compounds) by EC50: min first. Form entry: labels listed in requested order.
Return: A, C, B
(A: 66.1 nM, C: 1000 nM, B: 1580 nM)
